# Test system: primary human hepatic stellate cells (donor 1)
# measurement protocol: scaled lipid accumulation score (0 = DMSO-like, 1 = nortriptyline-like); higher = stronger HSC inactivation (lipid re-accumulation), active = hit call of the paper
# protocol conditions: library stock concentration: 10 mM; 48 h
Structures can show the parent of a compound that is named as a salt. Hit rate of the full screen: of about 5,800 compounds, about 620 (11%) showed activity.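 Rule for the calls: active = score above a cut-off or among the top three wells of a plate; in these data no inactive exceeds 0.85.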 Shown is part of a subset that was picked to be rich in actives.
I would appreciate it if you answered using one of these outcomes: active, inactive

Exercise: Any idea what this test logged for Cn1cc(C2=C(c3cn(CCCSC(=N)N)c4ccccc34)C(=O)NC2=O)c2ccccc21 [Ro 31-8220 Mesylate] ?
Solution: inactive

* * *

Measured scaled lipid accumulation score, listed per entry.
# Tested on: primary human hepatic stellate cells (donor 1)
# measurement protocol: scaled lipid accumulation score (0 = DMSO-like, 1 = nortriptyline-like); higher = stronger HSC inactivation (lipid re-accumulation), active = hit call of the paper
# protocol conditions: library stock concentration: 6.2 mM; 48 h
Where a name gives a salt, the structure may show the parent alone. Out of some 5,800 compounds screened, about 620 (11%) showed activity. The entries come from a sample that favours actives as a whole.

Worked examples follow.
> print(dat)
                                   molecule                     readout.type   reported.result
1  CC(CN1c2ccccc2Sc2ccccc21)N(C)C (stereo not given) [Promethazine hydrochloride]  scaled lipid accumulation score  0.655 (inactive)
2  CN(C)CCC[C@@]1(c2ccc(F)cc2)OCc2cc(C#N)ccc21 [Escitalopram]  scaled lipid accumulation score  0.197 (inactive)
3  CC(=O)c1ccc(S(=O)(=O)NC(=O)NC2CCCCC2)cc1 [Acetohexamide]  scaled lipid accumulation score    ≤ 0 (inactive)

Exercise: Request - read-out scaled lipid accumulation score | tested on primary human hepatic stellate cells (donor 1) | molecule CN1CCC(=C2c3ccccc3C=Cc3ccccc32)CC1 [Cyproheptadine hydrochloride]
Solution: 0.686 (inactive)

Exercise: Checklist item: scaled lipid accumulation score tested on primary human hepatic stellate cells (donor 1), entry CN(C)CCCN1c2ccccc2Sc2ccccc21 [Promazine hydrochloride] , value?
Solution: 0.834 (inactive)

* * *

# Test system: primary human hepatic stellate cells (donor 1)
# measurement protocol: scaled lipid accumulation score (0 = DMSO-like, 1 = nortriptyline-like); higher = stronger HSC inactivation (lipid re-accumulation), active = hit call of the paper
# protocol conditions: library stock concentration: 10 mM; 48 h
Among all 5,800 compounds or so, about 620 (11%) showed activity. Only a selection was taken, and actives are over-represented in it overall.
readout type: scaled lipid accumulation score

Some solved cases for reference:
molecule	scaled lipid accumulation score
C=C(C)[C@@H](CC=C(C)C)C[C@@]12C[C@@H](CC=C(C)C)C(C)(C)[C@@](CC=C(C)C)(C(=O)C(C(=O)c3ccc(O)c(O)c3)=C1O)C2=O	≤ 0 (inactive)
CSC(=N)NCCC[C@H](N)C(=O)O [S-Methyl-L-thiocitrulline acetate]	≤ -0.02 (inactive)
CC(C)n1cnc2c(NCc3ccccc3)nc(NCCCO)nc21	0.099 (inactive)
O=C(c1ccc(Nc2nccc(-c3cc4ccccc4s3)n2)cc1)N1CCC(N2CCCC2)CC1	0.18 (inactive)
C=CCc1ccc(O)c(-c2ccc(O)c(CC=C)c2)c1	0.295 (inactive)
O=C(c1ccc(Nc2nccc(-c3cc4ccccc4s3)n2)cc1)N1CCC(N2CCCC2)CC1 [IKK-16 (IKK Inhibitor VII)]	0.246 (inactive)

Let us examine a further case.
Exercise: Recorded scaled lipid accumulation score of C=CC[N+]1([C@H]2C[C@H]3[C@@H]4CC[C@H]5C[C@H](O)[C@@H](N6CCOCC6)C[C@]5(C)[C@H]4CC[C@]3(C)[C@H]2OC(C)=O)CCCC1 [Rocuronium Bromide] , please.
Solution: ≤ 0 (inactive)

* * *

# Tested on: primary human hepatic stellate cells (donor 1)
# measurement protocol: scaled lipid accumulation score (0 = DMSO-like, 1 = nortriptyline-like); higher = stronger HSC inactivation (lipid re-accumulation), active = hit call of the paper
# protocol conditions: library stock concentration: 10 mM; 48 h
Structures can show the parent of a compound that is named as a salt. Screen size: about 5,800 compounds; about 620 (11%) showed activity.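 How the source made its calls: active = score above a cut-off or among the top three wells of a plate; in these data no inactive exceeds 0.85.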 The entries come from a sample that favours actives as a whole.
Assign a class; possible classes are active, inactive

compound	class name
O=c1[nH]ccc2c(S(=O)(=O)N3CCCNCC3)cccc12 [HA 1100 hydrochloride]	inactive
CC(CN(C)C)CN1c2ccccc2CCc2ccccc21 (stereo not given) [Trimipramine maleate]	inactive
CC[C@]1(O)C[C@H]2CN(CCc3c([nH]c4ccccc34)[C@@](C(=O)OC)(c3cc4c(cc3OC)N(C=O)[C@H]3[C@@](O)(C(=O)OC)[C@H](OC(C)=O)[C@]5(CC)C=CCN6CC[C@]43[C@@H]65)C2)C1 [Vincristine]	inactive

Exercise: What did this assay record as the result for CC1CN(S(=O)(=O)c2cccc3cnccc23)CCN1 (stereo not given) ?
Solution: inactive

Exercise: Test call, this compound: "O=S(=O)(c1cccc2cnccc12)N1CCNCC1"
Solution: inactive

Exercise: How did this test come out for "CCOC(=O)[C@H](CCc1ccccc1)N[C@H]1CCc2ccccc2N(CC(=O)O)C1=O" ?
Solution: inactive

* * *

# System: primary human hepatic stellate cells (donor 1)
# measurement protocol: scaled lipid accumulation score (0 = DMSO-like, 1 = nortriptyline-like); higher = stronger HSC inactivation (lipid re-accumulation), active = hit call of the paper
# protocol conditions: library stock concentration: 1 mM; 48 h
The campaign covered roughly 5,800 compounds. About 620 (11%) showed activity. For the sample, actives were picked, then their nearest neighbours and some compounds at random.
In this section, each of the molecules is paired with its reported scaled lipid accumulation score.

> print(dat)
                                   molecule                     readout.type   reported.result
1  CCCCC[C@H](O)/C=C/[C@H]1C(=O)C[C@H](O)[C@@H]1C/C=C/CCCC(=O)O [5-trans Prostaglandin D2]  scaled lipid accumulation score    ≤ 0 (inactive)
2  CCCCC/C=C\C/C=C\C/C=C\C/C=C\CCCC(=O)S[C@H](COCCCCCCCCCCCCCCCC)COP(=O)([O-])OCC[N+](C)(C)C  scaled lipid accumulation score    ≤ 0 (inactive)
3          CCCCC/C=C\C/C=C\CC/C=C\CCCC(=O)O  scaled lipid accumulation score  0.009 (inactive)
4  CCCCC[C@H](O)/C=C/[C@@H]1[C@@H](C/C=C/CCCC(=O)O)[C@@H](O)C[C@H]1O [5-trans Prostaglandin F2.alpha.]  scaled lipid accumulation score    ≤ 0 (inactive)
5   CC/C=C\C/C=C\C/C=C\C/C=C\CCCCCCC(=O)OCC  scaled lipid accumulation score    ≤ 0 (inactive)

Exercise: Consider the molecule shown here: "Cc1nc(-c2ccc(C(F)(F)F)cc2)sc1C(=O)NCc1ccc(OC(C)(C)C(=O)O)cc1" What is its recorded scaled lipid accumulation score?
Solution: ≤ 0 (inactive)

Exercise: Find the recorded scaled lipid accumulation score belonging to "CCCCCCCCCCCCCCCCCC(=O)NCCS(=O)(=O)O" and report it.
Solution: 0.008 (inactive)

* * *

# System: primary human hepatic stellate cells (donor 1)
# measurement protocol: scaled lipid accumulation score (0 = DMSO-like, 1 = nortriptyline-like); higher = stronger HSC inactivation (lipid re-accumulation), active = hit call of the paper
# protocol conditions: library stock concentration: 10 mM; 48 h
The whole screen tested about 5,800 compounds, of which about 620 (11%) showed activity. The full list was thinned out, with actives kept by preference.
readout type: scaled lipid accumulation score
Output spec: single numeric token, no unit.

Consider the following illustrative entries.
> print(dat)
                                   molecule                             tested.target  reported.result
1  COc1ccc2c(c1)c(CC(=O)O)c(C)n2Cc1ccc(Cl)cc1  primary human hepatic stellate cells (donor 1)            0.078
2  CCN(CC)CCCCNc1ncc2cc(-c3c(Cl)cccc3Cl)c(NC(=O)NC(C)(C)C)nc2n1  primary human hepatic stellate cells (donor 1)            0.999
3  c1ccc2c(Oc3nc(Nc4ccc(N5CCOCC5)cc4)c4ncn(C5CCCCC5)c4n3)cccc2c1  primary human hepatic stellate cells (donor 1)            0.032
4              C[C@](N)(Cc1ccc(O)cc1)C(=O)O  primary human hepatic stellate cells (donor 1)            0.166

Consider now this further molecule.
Exercise: Hello, I am looking for reported scaled lipid accumulation score with primary human hepatic stellate cells (donor 1) for O=C(Nc1ccc(-c2ccnc(Nc3ccc(N4CCOCC4)cc3)n2)cc1)C1CCCN1 (stereo not drawn) . Could you help?
Solution: 0.662

* * *

# Test system: primary human hepatic stellate cells (donor 1)
# measurement protocol: scaled lipid accumulation score (0 = DMSO-like, 1 = nortriptyline-like); higher = stronger HSC inactivation (lipid re-accumulation), active = hit call of the paper
# protocol conditions: library stock concentration: 10 mM; 48 h
Counter-ions that a name gives are not always drawn. About 620 (11%) of roughly 5,800 compounds showed activity. This is one part of a sample in which actives are shown more often than they occur.
readout type: scaled lipid accumulation score

Known results for molecules:
molecule	readout type	reported result
CS(=O)(=O)O.Cc1ccc(NC(=O)c2ccc(CN3CCN(C)CC3)cc2)cc1Nc1nccc(-c2cccnc2)n1	scaled lipid accumulation score	1.08 (active)
Cc1ccc(NC(=O)c2ccc(CN3CCN(C)CC3)cc2)cc1Nc1nccc(-c2cccnc2)n1	scaled lipid accumulation score	0.628 (inactive)
CCN1CCCC1CNC(=O)c1cc(S(N)(=O)=O)ccc1OC (single isomer, unassigned; (-)) [(-)-Sulpiride]	scaled lipid accumulation score	≤ 0 (inactive)
COc1ccnc2[nH]cc(C(=O)C(=O)N3CCN(C(=O)c4ccccc4)C[C@H]3C)c12	scaled lipid accumulation score	0.019 (inactive)
O=C(Nc1ccccc1)N[C@@H]1C[C@@H](C(=O)O)Nc2cc(Cl)cc(Cl)c21	scaled lipid accumulation score	≤ 0 (inactive)

Exercise: Can you share its scaled lipid accumulation score? I mean this molecule: COc1cc(OC)c(C(=O)CCCN2CCCC2)c(OC)c1 [Buflomedil HCl]
Solution: ≤ 0 (inactive)

Exercise: # scaled lipid accumulation score lookup, item "CCN(CC)CCCCNc1ncc2c(n1)N(C)C(=O)N(c1c(Cl)c(OC)cc(OC)c1Cl)C2"
Solution: 0.416 (inactive)

Exercise: Given the molecule CS(=O)(=O)O.Cc1ccc(NC(=O)c2ccc(CN3CCN(C)CC3)cc2)cc1Nc1nccc(-c2cccnc2)n1 [Imatinib] , what is its reported scaled lipid accumulation score?
Solution: 0.969 (active)

Exercise: For the molecule shown here, "COC(=O)N[C@@H](C)CNc1nccc(-c2cn(C(C)C)nc2-c2cc(Cl)cc(NS(C)(=O)=O)c2F)n1" , give the reported scaled lipid accumulation score.
Solution: 0.655 (inactive)

Exercise: Which scaled lipid accumulation score is reported for this molecule? NCCNC(=O)c1ccc(Cl)cn1 [Lazabemide hydrochloride]
Solution: ≤ -0.001 (inactive)

Exercise: If you can, please state the reported scaled lipid accumulation score value of "CN(C)c1cc2c(Nc3ccc4c(cnn4Cc4ccccc4)c3)ncnc2cn1" .
Solution: 0.524 (inactive)

Exercise: Bench note: what scaled lipid accumulation score did "Cc1nccnc1N1CCCCC1" show?
Solution: ≤ 0 (inactive)

Exercise: Could you share which scaled lipid accumulation score value was measured for "CO[C@@H](C(=O)N1Cc2[nH]nc(NC(=O)c3ccc(N4CCN(C)CC4)cc3)c2C1)c1ccccc1" ?
Solution: 0.915 (active)

Exercise: Which scaled lipid accumulation score value belongs to O=c1cc(-c2ccc(O)cc2)oc2cc(O[C@@H]3O[C@H](CO)[C@@H](O)[C@H](O)[C@H]3O)cc(O)c12 [Cosmosiin] ?
Solution: 0.333 (inactive)

Exercise: Can you share its scaled lipid accumulation score? I mean this molecule: NC1=NCC2c3ccccc3Cc3ccccc3N12 (configuration not stated) [Epinastine HCl]
Solution: 0.038 (inactive)

Exercise: What value of scaled lipid accumulation score has been recorded for this entry: "C[C@@H]1C[C@H]2[C@@H]3CCC4=CC(=O)C=C[C@]4(C)[C@@]3(F)[C@@H](O)C[C@]2(C)[C@H]1C(=O)CO"
Solution: ≤ 0 (inactive)

Exercise: # lookup: scaled lipid accumulation score of COc1cc(C(=O)OCCCN2CCCN(CCCOC(=O)c3cc(OC)c(OC)c(OC)c3)CC2)cc(OC)c1OC.Cl.Cl [Dilazep dihydrochloride]
Solution: 1.06 (active)

Exercise: Please report the recorded scaled lipid accumulation score for "COc1cc(OC)c(C(=O)CCCN2CCCC2)c(OC)c1" .
Solution: ≤ 0 (inactive)
